test: BET inhibitor-based combinations targeting novel dependencies in MECOM-rearranged (r) AML: SET-2 cell line (AID 2202231); conditions: SET-2 AML cells viability, CellTiter-Glo luminescence, 48 h; stronger effect = lower value, series mostly up to about 46 µM;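 note: plate controls were DMSO treated cells for no effect and wells without cells for full effect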
Inconclusive results are not listed.
List of viability values.
EXPERIMENTAL READOUT: viability (%)

compound="CC1COc2c(N3CCN(C)CC3)c(F)cc3c(=O)c(C(=O)O)cn1c23 (stereo not given)" measured_value=102
compound=C=C(C)[C@@H]1CC[C@]2(C(=O)O)CC[C@]3(C)[C@H](CC[C@@H]4[C@@]5(C)CC[C@H](O)C(C)(C)[C@@H]5CC[C@]43C)[C@@H]12 measured_value=115
compound=Cc1csc(NC(=O)c2sc3nc4c(c(C(F)(F)F)c3c2N)CCC4)n1 measured_value=97.5
compound=N[C@H](CSC(c1ccccc1)(c1ccccc1)c1ccccc1)C(=O)O measured_value=109
compound=CNc1nc(Nc2cnn([C@H]3CCN(C4COC4)C[C@@H]3F)c2Cl)ncc1C(F)(F)F measured_value=94.3
compound=Cn1cc(-c2ccc3nnc(Sc4ccc5ncccc5c4)n3n2)cn1 measured_value=107
compound="Oc1ccc(C2CNCCc3c2cc(O)c(O)c3Cl)cc1 (stereo not given)" measured_value=108
compound=Clc1ccc2ncc(-c3cccc(NC4CNC4)n3)n2c1 measured_value=115
compound=C[C@@H]1CN(CC(=O)N2CC(C)(C)c3ncc(Cc4ccc(F)cc4)cc32)[C@@H](CN2CCOC[C@H]2C)CN1 measured_value=86.9
compound="Cn1c(=O)c2c(ncn2CC(O)CO)n(C)c1=O (stereo not given)" measured_value=118

Just for reference, PubChem BioAssay (NCATS) is where these values come from.
